assay target: PDGFRA D842V (Homo sapiens, UniProt P16234, D842V)
Sequence (P16234 24-1089 D842V): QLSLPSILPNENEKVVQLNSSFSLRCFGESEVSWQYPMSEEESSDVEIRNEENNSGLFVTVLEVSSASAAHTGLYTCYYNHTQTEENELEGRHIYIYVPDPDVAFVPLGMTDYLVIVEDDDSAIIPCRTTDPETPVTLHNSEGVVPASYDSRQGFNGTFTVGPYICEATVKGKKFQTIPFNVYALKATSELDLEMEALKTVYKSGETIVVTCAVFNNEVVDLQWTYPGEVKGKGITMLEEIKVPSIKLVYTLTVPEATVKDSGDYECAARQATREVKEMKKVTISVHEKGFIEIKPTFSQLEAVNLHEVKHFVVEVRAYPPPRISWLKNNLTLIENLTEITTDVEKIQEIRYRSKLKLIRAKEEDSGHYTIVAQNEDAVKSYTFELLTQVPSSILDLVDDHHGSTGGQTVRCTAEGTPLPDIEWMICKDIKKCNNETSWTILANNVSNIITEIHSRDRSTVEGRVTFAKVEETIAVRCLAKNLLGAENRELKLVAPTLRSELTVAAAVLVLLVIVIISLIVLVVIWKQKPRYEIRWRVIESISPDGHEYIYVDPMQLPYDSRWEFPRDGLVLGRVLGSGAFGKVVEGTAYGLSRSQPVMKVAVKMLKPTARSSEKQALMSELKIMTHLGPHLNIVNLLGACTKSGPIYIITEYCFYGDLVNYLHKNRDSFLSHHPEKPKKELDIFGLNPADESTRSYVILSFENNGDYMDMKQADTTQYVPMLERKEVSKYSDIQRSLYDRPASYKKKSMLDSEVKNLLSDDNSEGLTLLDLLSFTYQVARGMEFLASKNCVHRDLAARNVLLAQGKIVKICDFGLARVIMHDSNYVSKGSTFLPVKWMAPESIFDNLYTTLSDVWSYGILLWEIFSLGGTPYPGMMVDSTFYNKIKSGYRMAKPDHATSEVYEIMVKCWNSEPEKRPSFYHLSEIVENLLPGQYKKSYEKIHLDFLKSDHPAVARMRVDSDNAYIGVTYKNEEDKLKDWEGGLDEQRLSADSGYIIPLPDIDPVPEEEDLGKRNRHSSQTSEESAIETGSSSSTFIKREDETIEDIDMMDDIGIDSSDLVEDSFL
method description: SelectScreen kinase specificity survey
experimental setup: estimated, abridged dose response curve, read-out: Kinase inhibitory activity EC50
Experimental: Testing of the compounds described in this invention was carried out using the SelectScreen™ platform from Invitrogen, Inc. (Carlsbad. Calif., USA) and the details of its performance are readily viewed via the web by linking to: http://www.invitrogen.com/downloads/SelectScrn_Brochure.pdf. Briefly, the approach is based on treating each specific kinase with a unique substrate and optical reporter system in the presence of ATP at 100 micromolar. […]
parameter measured: EC50 (nM)
Respond with the bare value in nM.

If you can, please state the reported EC50 value of CN(C)CCCNc1ccc2ncn3c4ccc5[nH]ncc5c4c(=O)c1c23 [Compound (IV)] .
370

Same read-out for CCN(CC)CCNc1ccc2ncn3c4ccc(O)cc4c(=O)c1c23 [Symadex, reference compound] ?
1060

====

assay target: EPHB1 (Homo sapiens)
Construct: purchased Invitrogen (SelectScreen service)
Sequence (P54762 18-984): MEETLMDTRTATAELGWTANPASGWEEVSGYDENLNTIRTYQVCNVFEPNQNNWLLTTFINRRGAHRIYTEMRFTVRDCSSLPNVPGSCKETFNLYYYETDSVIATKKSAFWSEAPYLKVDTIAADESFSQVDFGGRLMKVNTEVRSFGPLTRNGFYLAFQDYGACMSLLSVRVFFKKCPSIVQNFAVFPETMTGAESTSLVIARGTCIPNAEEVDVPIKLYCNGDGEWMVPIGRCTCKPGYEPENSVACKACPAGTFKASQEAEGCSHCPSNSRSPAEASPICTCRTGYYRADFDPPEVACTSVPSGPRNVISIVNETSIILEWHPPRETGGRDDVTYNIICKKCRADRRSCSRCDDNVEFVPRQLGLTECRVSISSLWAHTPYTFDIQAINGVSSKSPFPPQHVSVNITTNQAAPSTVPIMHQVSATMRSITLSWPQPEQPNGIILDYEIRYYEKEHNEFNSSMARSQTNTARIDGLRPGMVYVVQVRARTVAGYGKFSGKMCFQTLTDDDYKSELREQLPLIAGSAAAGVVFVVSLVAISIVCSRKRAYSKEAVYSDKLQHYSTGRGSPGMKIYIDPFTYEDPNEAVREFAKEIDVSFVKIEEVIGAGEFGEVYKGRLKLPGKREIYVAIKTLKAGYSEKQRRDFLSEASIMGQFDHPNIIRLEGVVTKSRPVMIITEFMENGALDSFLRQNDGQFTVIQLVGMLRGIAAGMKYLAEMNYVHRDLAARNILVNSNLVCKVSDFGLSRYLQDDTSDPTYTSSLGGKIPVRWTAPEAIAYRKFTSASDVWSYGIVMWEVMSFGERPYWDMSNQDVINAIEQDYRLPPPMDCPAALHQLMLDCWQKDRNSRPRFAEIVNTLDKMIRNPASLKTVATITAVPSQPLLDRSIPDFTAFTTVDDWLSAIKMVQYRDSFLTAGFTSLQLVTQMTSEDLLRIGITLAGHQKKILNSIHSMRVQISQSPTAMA
method description: SelectScreen kinase specificity survey
Type: biochemical
parameter measured: EC50

If you can, please state the reported EC50 value of CCN(CC)CCNc1ccc2ncn3c4ccc(O)cc4c(=O)c1c23 [Symadex, reference compound] .
> 5 µM

====

assay target: FLT3 D835Y (Homo sapiens, UniProt P36888, D835Y)
Construct: purchased Invitrogen (SelectScreen platform)
method description: Kinase EC50 (10 pt curve or estimate, ATP Kmapp)
Type: biochemical
experimental setup: from 10 pt curve or estimate based on 1 μm inhibition assay at ATP Kmapp
parameter measured: EC50 (nM)
Respond with the bare value in nM.

Notebook: pull reported EC50 for FLT3 D835Y (Homo sapiens, UniProt P36888, D835Y), entry "CN(C)CCCNc1ccc2ncn3c4ccc5[nH]ncc5c4c(=O)c1c23"
12

Same read-out for "O=c1c2c(NCCCN3CCOCC3)ccc3ncn(c4ccc5[nH]ncc5c14)c32" ?
11

Same read-out for CC(CCN1CCOCC1)Nc1ccc2ncn3c4ccc5[nH]ncc5c4c(=O)c1c23 (stereo not drawn) ?
8
